TEST_TARGET: hCaSR (Calcium sensing receptor) in stably transfected HEK293 cells (Homo sapiens)
Sequence (P41180 20-1078): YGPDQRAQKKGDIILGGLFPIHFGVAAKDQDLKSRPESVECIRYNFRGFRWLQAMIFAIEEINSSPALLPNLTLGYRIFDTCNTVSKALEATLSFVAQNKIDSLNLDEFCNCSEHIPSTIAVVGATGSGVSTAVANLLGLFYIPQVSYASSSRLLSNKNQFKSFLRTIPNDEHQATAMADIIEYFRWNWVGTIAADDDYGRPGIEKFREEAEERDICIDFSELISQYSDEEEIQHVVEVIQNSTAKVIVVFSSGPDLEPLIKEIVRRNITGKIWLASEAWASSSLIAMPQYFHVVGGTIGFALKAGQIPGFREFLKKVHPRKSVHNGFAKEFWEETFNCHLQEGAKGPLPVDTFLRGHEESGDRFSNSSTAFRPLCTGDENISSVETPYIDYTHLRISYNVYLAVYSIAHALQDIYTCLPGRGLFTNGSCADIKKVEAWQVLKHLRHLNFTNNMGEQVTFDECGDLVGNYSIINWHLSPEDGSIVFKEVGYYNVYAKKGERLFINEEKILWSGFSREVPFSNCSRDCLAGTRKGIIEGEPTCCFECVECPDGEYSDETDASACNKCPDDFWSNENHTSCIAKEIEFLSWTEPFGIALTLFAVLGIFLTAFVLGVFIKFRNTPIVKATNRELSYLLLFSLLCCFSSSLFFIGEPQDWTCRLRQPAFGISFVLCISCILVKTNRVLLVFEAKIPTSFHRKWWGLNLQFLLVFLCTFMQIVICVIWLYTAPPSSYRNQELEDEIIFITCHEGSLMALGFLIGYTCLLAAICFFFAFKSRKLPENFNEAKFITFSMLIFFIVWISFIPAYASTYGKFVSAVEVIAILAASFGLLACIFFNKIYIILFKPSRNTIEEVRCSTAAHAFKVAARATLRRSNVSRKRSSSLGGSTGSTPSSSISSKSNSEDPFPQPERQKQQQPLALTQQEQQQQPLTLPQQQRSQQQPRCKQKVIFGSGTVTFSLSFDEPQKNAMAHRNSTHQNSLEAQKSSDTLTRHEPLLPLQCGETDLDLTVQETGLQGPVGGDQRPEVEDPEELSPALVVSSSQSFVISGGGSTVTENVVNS
EXPERIMENT_SUMMARY: In-vitro assay of calcimimetics through modulation of calcium sensing receptor (CaSR): increase in intracellular calcium, FLIPR
CONDITION_CONTEXT: HEK293 cells expressing hCaSR; intracellular calcium (Fluo4NW, FLIPR); 0.3 mM CaCl2; 8-point assay; read-out: EC50 in range
Where a name gives a salt, the structure may show the parent alone.
OUTCOME_MEASURE: EC50

Completed entries (count: 5):
[[record]]
compound = "C[C@@H](NCC1COCCN1c1cccc(C(F)(F)F)c1)c1cccc2ccccc12 (single isomer, unassigned)"
readout_value = "< 20 nM"

[[record]]
compound = "C[C@@H](NCC1COCCN1Cc1cccc(C(F)(F)F)c1)c1cccc2ccccc12 (single isomer, unassigned) [Example-35b]"
readout_value = "20 to 50 nM"

[[record]]
compound = "Cc1ccc(N2CCOC(CN[C@H](C)c3cccc4ccccc34)C2)cc1 (single isomer, unassigned) [27b]"
readout_value = "< 20 nM"

[[record]]
compound = "C[C@@H](NCC1COCCN1c1cccc(F)c1)c1cccc2ccccc12 (stereo partly shown)"
readout_value = "< 20 nM"

[[record]]
compound = "COc1cccc([C@@H](C)NCC2COCCN2c2ccc(F)c(F)c2)c1 (stereo partly shown)"
readout_value = "50 to 200 nM"


QUERY: Find the recorded EC50 belonging to C[C@@H](NCCC1CN(c2ccc(C(F)(F)F)cc2)CCO1)c1cccc2ccccc12 (stereo partly shown) and report it.
RESULT: 20 to 50 nM

QUERY: Quick one: EC50 for C[C@@H](NCC1CN(Cc2cc(F)ccc2F)C(=O)CO1)c1cccc2ccccc12 (single isomer, unassigned) [Example 72a, hydrochloride] ?
RESULT: < 20 nM
